- TEST DETAILS: Colistin plasma concentration at steady state in patients treated with intravenous CMS (HPLC)
- Assay type: in vivo, human
- CONDITION: human, plasma, iv, patients who survived n = 63; day 4 trough; plasma, HPLC; mean ± SD; read-out: Css
Where a SMILES comes first, the peptide text is derived from it.
MEASURE NAME: level at 96 h

Need level at 96 h of CC[C@H](C)CCCCC(=O)N[C@@H](CCN)C(=O)N[C@H](C(=O)N[C@@H](CCN)C(=O)N[C@H]1CCNC(=O)[C@H]([C@@H](C)O)NC(=O)[C@H](CCN)NC(=O)[C@H](CCN)NC(=O)[C@H](CC(C)C)NC(=O)[C@@H](CC(C)C)NC(=O)[C@H](CCN)NC1=O)[C@@H](C)O [colistin] (HELM PEPTIDE1{[CC[C@H](C)CCCCC(=O)[*:2]].[Dab].T.[Dab].[Dab].[Dab].[dL].L.[Dab].[Dab].T}$PEPTIDE1,PEPTIDE1,5:R3-11:R2$$$V2.0) , thanks. 1400 ng/mL

---

- TEST DETAILS: Colistin plasma concentration at steady state in patients treated with intravenous CMS (HPLC)
- Type: in vivo, human
- CONDITION: human, plasma, iv, day 4; just before administration of CMS; plasma, HPLC; mean ± SD; SD; read-out: Cmin (colistin plasma trough concentration)
Where a SMILES comes first, the peptide text is derived from it.
MEASURE NAME: level at 96 h (ng/mL)
Could you give me the number in ng/mL? Just the number is fine.

Which level at 96 h value belongs to CC[C@H](C)CCCCC(=O)N[C@@H](CCN)C(=O)N[C@H](C(=O)N[C@@H](CCN)C(=O)N[C@H]1CCNC(=O)[C@H]([C@@H](C)O)NC(=O)[C@H](CCN)NC(=O)[C@H](CCN)NC(=O)[C@H](CC(C)C)NC(=O)[C@@H](CC(C)C)NC(=O)[C@H](CCN)NC1=O)[C@@H](C)O [colistin] (HELM PEPTIDE1{[CC[C@H](C)CCCCC(=O)[*:2]].[Dab].T.[Dab].[Dab].[Dab].[dL].L.[Dab].[Dab].T}$PEPTIDE1,PEPTIDE1,5:R3-11:R2$$$V2.0) ? 1710

---

- TEST DETAILS: Colistin plasma concentration at steady state in patients treated with intravenous CMS (HPLC)
- Type: in vivo, human
- CONDITION: human, iv; day 4; 30 min after end of 30-min CMS infusion; plasma, HPLC; mean ± SD; SD; read-out: Cmax (maximum plasma concentration)
Where a SMILES comes first, the peptide text is derived from it.
MEASURE NAME: Cmax
Please state the value followed by its unit.

State the recorded Cmax for this entry: CC[C@H](C)CCCCC(=O)N[C@@H](CCN)C(=O)N[C@H](C(=O)N[C@@H](CCN)C(=O)N[C@H]1CCNC(=O)[C@H]([C@@H](C)O)NC(=O)[C@H](CCN)NC(=O)[C@H](CCN)NC(=O)[C@H](CC(C)C)NC(=O)[C@@H](CC(C)C)NC(=O)[C@H](CCN)NC1=O)[C@@H](C)O [colistin] (HELM PEPTIDE1{[CC[C@H](C)CCCCC(=O)[*:2]].[Dab].T.[Dab].[Dab].[Dab].[dL].L.[Dab].[Dab].T}$PEPTIDE1,PEPTIDE1,5:R3-11:R2$$$V2.0) 1660 ng/mL

Reference for the values: paper PMC5217330
